Molecular target: UniProtKB Q96P20
Sequence (Q96P20 whole entry): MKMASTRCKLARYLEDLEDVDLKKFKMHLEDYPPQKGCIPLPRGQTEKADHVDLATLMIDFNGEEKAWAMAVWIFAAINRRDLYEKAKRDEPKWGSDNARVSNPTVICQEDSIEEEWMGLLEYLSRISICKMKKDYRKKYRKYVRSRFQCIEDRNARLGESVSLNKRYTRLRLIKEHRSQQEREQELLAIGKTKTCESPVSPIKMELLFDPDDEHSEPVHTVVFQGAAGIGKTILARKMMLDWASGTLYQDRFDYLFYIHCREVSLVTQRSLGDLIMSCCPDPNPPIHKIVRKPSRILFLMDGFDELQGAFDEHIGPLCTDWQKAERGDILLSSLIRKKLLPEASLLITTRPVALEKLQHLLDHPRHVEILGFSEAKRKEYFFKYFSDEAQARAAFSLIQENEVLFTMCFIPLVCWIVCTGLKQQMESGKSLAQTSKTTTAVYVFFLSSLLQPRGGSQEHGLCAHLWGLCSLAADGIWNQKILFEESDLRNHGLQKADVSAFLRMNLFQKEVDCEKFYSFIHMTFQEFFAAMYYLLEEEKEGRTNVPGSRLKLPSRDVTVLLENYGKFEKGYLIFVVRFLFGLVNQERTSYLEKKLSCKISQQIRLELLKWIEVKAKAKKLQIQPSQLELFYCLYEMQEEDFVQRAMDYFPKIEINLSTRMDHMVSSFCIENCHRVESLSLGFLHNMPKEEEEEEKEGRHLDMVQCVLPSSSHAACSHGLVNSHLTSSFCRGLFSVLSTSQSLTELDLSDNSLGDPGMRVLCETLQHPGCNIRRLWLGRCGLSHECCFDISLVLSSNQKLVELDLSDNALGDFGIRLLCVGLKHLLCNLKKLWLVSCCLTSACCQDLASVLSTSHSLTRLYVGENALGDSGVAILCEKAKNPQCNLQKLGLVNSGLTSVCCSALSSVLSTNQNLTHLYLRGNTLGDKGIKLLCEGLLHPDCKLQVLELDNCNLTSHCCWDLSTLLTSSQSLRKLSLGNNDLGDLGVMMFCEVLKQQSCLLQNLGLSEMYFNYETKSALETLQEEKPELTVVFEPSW
Assay: THP-1 cells pyroptosis assay
Type: cell-based
Design: Seed THP-1 cells (25,000 cells/well) containing 1.0 μg/ml LPS; host or cells: THP-1
Conditions: LPS 1.0 μg/ml, nigericin 5 μM, resazurin readout, 10 μM top dose (Example 2: top dose of 30 μM)
Procedure: THP-1 cells (ATCC #TIB-202) were grown in RPMI containing L-glutamine (Gibco #11835) supplemented with imM sodium pyruvate (Sigma #S8636) and penicillin (100 units/ml)/streptomycin (0.1 mg/ml) (Sigma #P4333) in 10% Fetal Bovine Serum (FBS) (Sigma #F0804). […] The cells were then counted and viability (>90%) checked by Trypan blue (Sigma #T8154). […] The following method step-by-step assay was followed for compound screening. • 1. […] Plates were read in an Envision reader at Ex 560 nm and Em 590 nm • 9. […]

- compound: "COc1cc(-c2cccc(C(C)C)c2Oc2nnc(S(=O)(=O)N3CCC(N(C)C)CC3)[nH]2)ccn1"
  IC50: "≤ 5 µM"
- compound: "CC(C)(O)Cn1cc(S(=O)(=O)c2nnc(Nc3c4c(cc5c3CCC5)CCC4)[nH]2)cn1"
  IC50: "≤ 5 µM"
- compound: "O=S(=O)(c1cccc(F)c1)c1nnc(Nc2c3c(cc4c2CCC4)CCC3)[nH]1"
  IC50: "≤ 5 µM"
- compound: "COc1cc(-c2cc(F)cc(C(C)C)c2Nc2nnc(S(=O)(=O)N3CCC(CN(C)C)C3)[nH]2)ccn1 (stereo not shown)"
  IC50: "≤ 0.5 µM"
- compound: "N#Cc1cccc(S(=O)(=O)c2nnc(Nc3c4c(cc5c3CCC5)CCC4)[nH]2)c1"
  IC50: "≤ 5 µM"
- compound: "Cc1ccc(S(=O)(=O)c2nnc(Nc3c4c(cc5c3CCC5)CCC4)[nH]2)cc1"
  IC50: "≤ 5 µM"
- compound: "CN(C)C(=O)Cn1ccc(S(=O)(=O)c2nnc(Nc3c4c(cc5c3CCC5)CCC4)[nH]2)n1"
  IC50: "≤ 0.5 µM"
- compound: "CN(C)C1CCN(S(=O)(=O)c2nnc(Nc3c4c(c(Cl)c5c3CCC5)CCC4)[nH]2)CC1"
  IC50: "≤ 0.5 µM"
- compound: "COc1cc(-c2ccc3c(c2Nc2nnc(S(C)(=O)=O)[nH]2)CCC3)ccn1"
  IC50: "≤ 10 µM"
- compound: "CN1C[C@H]2[C@@H]1CCN2S(=O)(=O)c1nnc(Nc2c3c(cc4c2CCC4)CCC3)[nH]1"
  IC50: "≤ 10 µM"
